tested on: Wild type; experiment: S. aureus survival, RN4220 and DeltatarO strains – OD600, teichoic acid synthesis inhibitors, primary screen (AID 463173); details: S. aureus RN4220 wild type/DeltatarO growth, OD600, 18 h, screened at 18.75 µg/mL (by protocol)
Among all 52,000 compounds or so, about 1,700 (3.3%) were called active. No stated cut-off is given here; in the data, active means survival mostly below about 52% (no sharp cut-off); inactive means mostly above about 56%. What follows is part of a selection rich in actives, with near analogues and random picks from the rest.
Respond with a class label; see Y (active), N (inactive)

Look over these answered cases.
>>> df
                                   molecule  measured_on  label_class
0  COc1ccc(NC(=O)CC2C(=O)N(c3ccc(C)cc3)C(=O)N2C2CCCCC2)cc1 (stereo unspecified)    Wild type            N
1  CCOc1ccc(-n2c(SCC(=O)Nc3cc(C)on3)nc3c([nH]c4ccccc43)c2=O)cc1    Wild type            N
2  COCCNC(=O)CCN1C(=O)c2cccnc2Oc2ccc(C)cc21    Wild type            N
3  CCOC(=O)c1c(NC(=O)C(C)Oc2ccccc2F)sc(C(C)=O)c1C (stereo unspecified)    Wild type            N
4  Cc1cc(C)n2c(Nc3cccc(C(F)(F)F)c3)c(-c3ccsc3)nc2n1    Wild type            N
5  CCc1ccccc1NC(=O)Cn1nc(C(F)(F)F)c2c1CCCC2    Wild type            N
6  CCc1ccccc1NC(=O)CCNS(=O)(=O)c1ccc2c(c1)CCCC(=O)N2    Wild type            N
7  COc1ccc(NC(=O)c2c(NC(=O)c3ccncc3)sc3c2CCC(C(C)(C)C)C3)cc1 (stereo unspecified)    Wild type            N

*Q* So what was the verdict on Cc1ccccc1C(=O)Nc1sc2c(c1C(=O)N1CCCCC1)CCC(C(C)(C)C)C2 (stereo unspecified) in this test?
*A* Y

*Q* Would you mind telling me which call this test gave O=C(COc1ccccc1F)Nc1ccccc1OCc1cc(=O)n2ccccc2n1 ?
*A* N

*Q* Test call for this molecule, please: COc1ccc(Cl)cc1NC(=O)Cn1nc(C(F)(F)F)c2c1CCC2
*A* N

*Q* Recorded test call requested for CCn1c(CN2CCCCC2)nc2cc(NC(=O)COc3ccc([N+](=O)[O-])cc3)ccc21
*A* N

*Q* What call does the record list for COc1ccc2c(c1)CCc1c(C(=O)Nc3c(C)nn(Cc4ccc(Cl)cc4)c3C)noc1-2 ?
*A* N

*Q* Entry Cc1cc(C)cc(NC(=O)CCS(=O)(=O)c2cccc3nsnc23)c1 : call = ?
*A* N

*Q* For CCOc1ccc(Nc2nn(-c3ccc(OC(F)(F)F)cc3)nc2C(C)=O)cc1 , what call appears in the results of this test?
*A* N

*Q* Identify the outcome logged in this assay for the molecule shown: Cc1cccc(-n2c(Cc3ccccc3)nnc2SCc2nc(-c3cccs3)no2)c1
*A* N

Taken from PubChem BioAssay AID463173.
